Reference for the values: PubChem BioAssay (NCI)

System: MALME-3M melanoma
Assay: NCI-60 one-dose screen, 48 h
Details: 10 µM unless noted
About 83,000 compounds went through this panel and 20% of them were active in at least one assay; those are over-represented in the sample as a whole. Active and inactive are the calls of the source. How the source made its calls: active means growth percent below 10; inactive means the rest.
One label from this list, please: TRUE = active, FALSE = inactive

C=CC[PH+](c1ccccc1)c1ccccc1.C=CC[PH+](c1ccccc1)c1ccccc1.[Cl][Pt][Cl]	TRUE

## Task Call for entry "COc1cc([C@@H]2c3cc4c(cc3[C@H](OC(C)=O)[C@H]3COC(=O)[C@@H]23)OCO4)cc(OC)c1OC" :
## Result FALSE
